# assayRemarks: protein stability index of a GFP-peptide fusion (GPS, HEK-293T) (PSI 1-6); higher = more stable;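 note: 24-mer peptide tiles fused after GFP, lentivirally expressed, FACS-sorted into six equal bins by GFP/DsRed ratio, decoded by Illumina sequencing, PSI is the read-weighted mean bin number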
# appliedConditions: treatment: MLN4924 1 uM, 8 h; c terminus: a fixed tail appended
Tag: yes if measured protein stability index is not below 3, no if it is.

IN: // inclusive: protein stability index at least 3? input: LFTDLFDRKGYMFDYEYDWIGKQL [CSNK1G3]
OUT: no

IN: Answer whether protein stability index of WEQPWASEVFGPERMPPSGAARSF [PXN] is greater than or equal to 3.
OUT: yes

IN: // inclusive: protein stability index at least 3? input: LASQALTPPPGPASAQPLPAPEAA [TFE3]
OUT: yes

IN: Check the entry LSSIKRDTNSIAKAIKARGEVIHC [STX11] : does protein stability index equal or exceed 3?
OUT: yes

IN: Does TFKSFEDRVGTIKSKVVGDRENGS [TPD52L2] have a reported protein stability index of at least 3?
OUT: yes

IN: Does protein stability index meet or surpass 3 for RIAAVEALCMLAQSSPSFAEKCLD [INTS4] ?
OUT: no

IN: hey, is protein stability index for this one >= 3? LENAEVLELTVRRVQGVLRGRARE [HES6]
OUT: yes

IN: Quick check, protein stability index >= 3? TEPETAPTTEPETEPEDDRGPVVP [GNAS]
OUT: yes

IN: Form field: protein stability index at least 3? Entry: GKGSGGNAGSYIPSYTSWYPSAHQ [DLX1]
OUT: no

IN: Quick check, protein stability index >= 3? TNLTVTMDQLQGLGSDYEQPLEVK [CDC25A]
OUT: yes

IN: State whether the measured protein stability index reaches 3, counting equality as reaching it, for LNEEQTLQEVPTGLDSISHDSANC [ETS2]
OUT: yes

IN: Is protein stability index for MEVAMVSAESSGCNSHMPYGYAAQ [KCNA4] at or above 3?
OUT: yes

IN: Is the recorded value of protein stability index equal to or greater than 3 for this sequence? TLLHFSAARGKERCVRVFLEHGAD [ASB7]
OUT: no

IN: Answer whether protein stability index of LAGAALEPAGGGRSREARSRLLLL [SMAD6] is greater than or equal to 3.
OUT: yes

IN: Determine whether this sequence has protein stability index no lower than 3: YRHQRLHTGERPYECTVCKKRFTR [ZNF449]
OUT: yes

IN: Is the recorded value of protein stability index equal to or greater than 3 for this sequence? LRELGHAEHEITELTATFTKFDRD [PKD2L1]
OUT: yes

IN: Check this sequence for protein stability index at or above 3: LEHVRALIKKYSDHLENVSKLVES [TRIM55]
OUT: yes

IN: Could you verify whether the entry TDSPWIKPARKRRRRSRKKPSGAL [EHMT1] shows protein stability index of no less than 3?
OUT: yes

IN: In plain terms: is recorded protein stability index at least 3 for SDLLNDQDLLDVIRIKLDPCHPTV [EDARADD] ?
OUT: no

IN: // inclusive: protein stability index at least 3? input: KYGGPNHHLPLPDNWKSQVEPETR [CPN1]
OUT: yes

IN: Please check the record GTAHIPPTMHLESPALQVMGPAQE [ZNF449] and state if its protein stability index is at or above 3.
OUT: yes

IN: Threshold query (protein stability index >= 3) on LANLRGLSEEERSEKAMLRSRIEE [CCDC89]
OUT: yes

IN: Test whether the sequence YYVLEPRVVDGTPCSPDSSSVCVQ [ADAMTS4] records protein stability index of 3 or higher.
OUT: yes

IN: Is reported protein stability index greater than or equal to 3 here: TPRSPEGTTEAATQDGKEQPELPC [PXN]
OUT: yes

IN: Given LPAGAGAPKAGLEEAPAVTAGLKI [TNFSF13B] , state whether its protein stability index is at least 3.
OUT: yes
